All figures here come from ChEMBL document CHEMBL1127587.

test.summary: Tested for experimental arotinoid inhibitory dose
-Log ID50: recorded values

# compound, -Log ID50
rows = [
    ("C/C(=C\\c1ccc(C(=O)O)cc1)c1ccc2c(C)c(C)c(C)c(C)c2c1", 8.8),
    ("C/C(=C\\c1ccc(C(=O)O)cc1)c1ccc2c(c1)C(C)(C)CC[C@H]2C", 10.22),
    ("C/C(=C\\c1ccc(C(=O)O)cc1)c1ccc2c(c1)SCCC2(C)C", 9.22),
    ("COc1ccc(/C(C)=C/c2ccc(C(=O)O)cc2)cc1C(C)(C)C", 9.4),
    ("C/C(=C(/F)c1ccc(C(=O)O)cc1)c1cc2c(s1)CCCC2(C)C", 9.22),
    ("C/C(=C\\c1ccc(C(=O)O)cc1)c1ccc2c(c1)C1CCC2C1 (stereo not given)", 8.51),
    ("C/C(=C\\c1ccc(C(=O)O)cc1)c1ccc(SCCC(C)C)cc1", 6.77),
    ("C/C(=C\\c1ccc2c(c1)C(C)(C)CCC2(C)C)c1ccc(C(=O)O)cc1", 10.52),
    ("C/C(=C\\c1ccc(C(=O)O)cc1)c1ccc2c(c1)C(C)(C)CCC2(C)C", 10.52),
    ("C/C(=C\\c1ccc(C(=O)O)cc1)c1ccc2c(c1)C(C)(C)CC[C@@H]2C", 10.3),
]

====

test.summary: Tested for experimental arotinoid inhibitory dose
metric: -Log ID50

# compound, readout.value
rows = [
    ("C/C(=C\\c1ccc(C(=O)O)cc1)c1ccc2c(c1)C(C)(C)CCC2C (stereo not given)", 10.15),
    ("C/C(=C\\c1ccc(C(=O)O)cc1)c1ccc2c(c1)C(C)(C)CCO2", 8.57),
    ("C/C(=C(/F)c1ccc(C(=O)O)cc1)c1ccc2c(c1)C(C)(C)CCC2(C)C", 10.1),
    ("C/C(=C\\c1ccc(C(=O)O)cc1)c1cc2c(s1)CCCC2(C)C", 10),
    ("C/C(=C\\c1ccc(C(=O)O)cc1)c1ccc2c(c1)CCCC2(C)C", 9.22),
    ("C/C(=C\\c1ccc2c(c1)C(C)(C)CCS2)c1ccc(C(=O)O)cc1", 9.22),
    ("C/C(=C\\c1ccc(C(=O)O)cc1)c1ccc2ccc(C)c(C)c2c1", 6.7),
    ("CC1(C)CCC(C)(C)c2cc3cc(-c4ccc(C(=O)O)cc4)ccc3cc21", 10.15),
    ("C/C(=C\\c1ccc(C(=O)O)cc1)c1ccc2c(c1)C(C)(C)CCS2", 9.3),
    ("C/C(=C\\c1ccc(C(=O)O)cc1)c1ccc2c(c1)C(C)(C)CCC2", 8.96),
]
